Values from patent US9566312B2

# pIC50 annotations
biological target: organic anion transporting polypeptide 1B1 (OATP1B1) (Homo sapiens (Human), UniProt Q9Y6L6); test: OATP assay in CHO-OATP1B1 cells;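 further: inhibition of probe substrate uptake into the cells, ten minutes exposure, accumulated substrate read by fluorescence once cells were lysed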
Sequence (Q9Y6L6 whole entry): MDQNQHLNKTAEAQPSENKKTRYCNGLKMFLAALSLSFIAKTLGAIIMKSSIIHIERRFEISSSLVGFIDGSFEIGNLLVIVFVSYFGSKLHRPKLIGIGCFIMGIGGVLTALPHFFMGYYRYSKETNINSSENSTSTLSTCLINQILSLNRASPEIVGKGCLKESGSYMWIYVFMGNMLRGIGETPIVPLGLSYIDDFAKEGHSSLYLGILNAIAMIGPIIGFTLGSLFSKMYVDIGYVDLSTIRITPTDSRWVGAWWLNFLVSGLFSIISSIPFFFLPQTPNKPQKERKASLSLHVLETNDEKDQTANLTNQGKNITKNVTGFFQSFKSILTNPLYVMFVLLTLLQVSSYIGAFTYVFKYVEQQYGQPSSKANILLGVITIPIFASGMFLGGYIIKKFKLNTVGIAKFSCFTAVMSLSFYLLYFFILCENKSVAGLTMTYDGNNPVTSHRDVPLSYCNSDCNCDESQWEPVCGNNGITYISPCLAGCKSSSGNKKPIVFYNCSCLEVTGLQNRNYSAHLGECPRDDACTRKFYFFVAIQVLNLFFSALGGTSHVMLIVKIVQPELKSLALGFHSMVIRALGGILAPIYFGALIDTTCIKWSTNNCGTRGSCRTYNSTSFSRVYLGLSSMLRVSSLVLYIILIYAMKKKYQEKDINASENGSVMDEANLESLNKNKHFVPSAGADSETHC
Starred links: 1 amine or outer side, 2 acyl side, 3 side chain; linkers in the order of their positions; H or OH if unused. Non-standard residues stand in square brackets, D forms with d. Residues, ends and D or L forms follow the SMILES beside them. NMeAbu(3S-Me,4-OC2H4Mor) = CN[C@H](C(=O)O)[C@H](C)COCCN1CCOCC1; X82 = C[C@H](COCCN1CCOC[C@@H]1C)[C@@H](C(=O)[*:2])N(C)[*:1]; X19 = COCCN1CCN(C[C@H](C)[C@@H](C(=O)[*:2])N(C)[*:1])CC1; NMe(dihydroBmt) = CCCC[C@@H](C)[C@@H](O)[C@H](NC)C(=O)O; X23 = COC1CN(C[C@@H](C)[C@@H](C(=O)[*:2])N(C)[*:1])C1; MeBmt = C/C=C/C[C@@H](C)[C@@H](O)[C@H](NC)C(=O)O; NMeL = CN[C@@H](CC(C)C)C(=O)O; NMeV = CN[C@H](C(=O)O)C(C)C; dNMeA = CN[C@H](C)C(=O)O; Abu = CC[C@H](N)C(=O)O
Scale: negative log10 of molar concentration, which is what pIC50 denotes.

Solved entries:
{"columns": ["molecule", "pIC50"],
 "data": [
  ["C/C=C/C[C@@H](C)[C@@H](O)[C@H]1C(=O)N[C@@H](CC)C(=O)N(C)[C@H](C)C(=O)N(C)[C@@H]([C@H](C)COCCN2CCOC[C@@H]2C)C(=O)N[C@@H](C(C)C)C(=O)N(C)[C@@H](CC(C)C)C(=O)N[C@@H](C)C(=O)N[C@H](C)C(=O)N(C)[C@@H](CC(C)C)C(=O)N(C)[C@@H](CC(C)C)C(=O)N(C)[C@@H](C(C)C)C(=O)N1C [Compound 2.8.6] (cyclo(A[dA][NMeL][NMeL][NMeV][MeBmt][Abu][dNMeA][X82]V[NMeL]))", 5.32],
  ["C/C=C/C[C@@H](C)[C@@H](O)[C@H]1C(=O)N[C@@H](CC)C(=O)N(C)[C@H](C)C(=O)N(C)[C@@H]([C@H](C)CN2CC(OC)C2)C(=O)N[C@@H](C(C)C)C(=O)N(C)[C@@H](CC(C)C)C(=O)N[C@@H](C)C(=O)N[C@H](C)C(=O)N(C)[C@@H](CC(C)C)C(=O)N(C)[C@@H](CC(C)C)C(=O)N(C)[C@@H](C(C)C)C(=O)N1C [Compound 2.5.17] (cyclo(A[dA][NMeL][NMeL][NMeV][MeBmt][Abu][dNMeA][X23]V[NMeL]))", 5.38],
  ["C/C=C/C[C@@H](C)[C@@H](O)[C@H]1C(=O)N[C@@H](CC)C(=O)N(C)[C@H](C(C)C)C(=O)N(C)C([C@H](C)COC)C(=O)N[C@@H](C(C)C)C(=O)N(C)[C@@H](CC(C)C)C(=O)N[C@@H](C)C(=O)N[C@H](C)C(=O)N(C)[C@@H](CC(C)C)C(=O)N(C)[C@@H](CC(C)C)C(=O)N(C)[C@@H](C(C)C)C(=O)N1C (stereo in doubt) [Compound 3.3]", 5.70]
]}

Consider the molecule C/C=C/C[C@@H](C)[C@@H](O)[C@H]1C(=O)N[C@@H](CC)C(=O)N(C)[C@H](C)C(=O)N(C)[C@@H]([C@H](C)COCCN2CCOCC2)C(=O)N[C@@H](C(C)C)C(=O)N(C)[C@@H](CC(C)C)C(=O)N[C@@H](C)C(=O)N[C@H](C)C(=O)N(C)[C@@H](CC(C)C)C(=O)N(C)[C@@H](CC(C)C)C(=O)N(C)[C@@H](C(C)C)C(=O)N1C [Compound 2.8.1] (cyclo(A[dA][NMeL][NMeL][NMeV][MeBmt][Abu][dNMeA][NMeAbu(3S-Me,4-OC2H4Mor)]V[NMeL])) and give its measured pIC50.
5.12

Consider the molecule CCCC[C@@H](C)[C@@H](O)[C@H]1C(=O)N[C@@H](CC)C(=O)N(C)[C@H](C)C(=O)N(C)[C@@H]([C@@H](C)CN2CCN(CCOC)CC2)C(=O)N[C@@H](C(C)C)C(=O)N(C)[C@@H](CC(C)C)C(=O)N[C@@H](C)C(=O)N[C@H](C)C(=O)N(C)[C@@H](CC(C)C)C(=O)N(C)[C@@H](CC(C)C)C(=O)N(C)[C@@H](C(C)C)C(=O)N1C [Compound 2.17.6] (cyclo(A[dA][NMeL][NMeL][NMeV][NMe(dihydroBmt)][Abu][dNMeA][X19]V[NMeL])) and give its measured pIC50.
5.48
